// provenance: patent US20040115622A1

- Tested Target: HLA-DR molecule encoded by the allele DRB5*0101 (human)
- Assay Overview: competition ELISA vs biotinylated HA 306-318
Outcome Measure: IC50 (µM)
Enter your answer as a number in µM; do not include the unit.

Binder	Unit String	Recorded Number
EANKGENTSLLHPVSLHGMDDPEREVLEWRF (modifications not checked) [Nef11 peptide (positions 155-185 of the HIV-1 Nef protein, Bru strain), P03406 155-185]	µM	3
AAVDLSHFLKEKGGL (modifications not checked) [Nef4.7 peptide (positions 83-97 of the HIV-1 Nef protein, Bru strain), P03406 83-97]	µM	3.25
FHHVARELHPEYFKN (modifications not checked) [Nef13.6 peptide (positions 191-205 of the HIV-1 Nef protein, Bru strain), P03406 191-205]	µM	8
EWRFDSRLAFHHVAREL (modifications not checked) [Nef13 peptide (positions 182-198 of the HIV-1 Nef protein, Bru strain), P03406 182-198]	µM	0.01
WRFDSRLAFHHVARE (modifications not checked) [Nef13.3 peptide (positions 183-197 of the HIV-1 Nef protein, Bru strain), P03406 183-197]	µM	0.015

Lookup: # IC50 lookup, item DKVEEANKGENTSLL (modifications not checked) [Nef10.6 peptide (positions 151-165 of the HIV-1 Nef protein, Bru strain), P03406 151-165]
Found: 1.5

Lookup: # IC50 lookup, item MGGKWSKSSVVGWPTVRERMRRAEPAADGVGAASRD (modifications not checked) [Nef1 peptide (positions 1-36 of the HIV-1 Nef protein, Bru strain), P03406 1-36]
Found: 0.4

Lookup: # IC50 lookup, item LTFGWCYKLVPVEPD (modifications not checked) [Nef10.1 peptide (positions 137-151 of the HIV-1 Nef protein, Bru strain), P03406 137-151]
Found: 4.5

Lookup: # IC50 lookup, item WCYKLVPVEPDKVEE (modifications not checked) [Nef10.3 peptide (positions 141-155 of the HIV-1 Nef protein, Bru strain), P03406 141-155]
Found: 1.5

Lookup: # IC50 lookup, item GVRYPLTFGWCYKLVP (modifications not checked) [Nef9 peptide (positions 132-147 of the HIV-1 Nef protein, Bru strain), P03406 132-147]
Found: 8
